Provenance of the data: patent US20250188176A1

Molecular target: T1, Extracellular domain (ECD) of the canine IL-4 receptor alpha-V5 epitope-AviTag-His Tag (canine)
T1 construct: monomeric form isolated by size exclusion; also called canine IL-4RA-V5-Avi-His; canine IL-4RA
T1 chain: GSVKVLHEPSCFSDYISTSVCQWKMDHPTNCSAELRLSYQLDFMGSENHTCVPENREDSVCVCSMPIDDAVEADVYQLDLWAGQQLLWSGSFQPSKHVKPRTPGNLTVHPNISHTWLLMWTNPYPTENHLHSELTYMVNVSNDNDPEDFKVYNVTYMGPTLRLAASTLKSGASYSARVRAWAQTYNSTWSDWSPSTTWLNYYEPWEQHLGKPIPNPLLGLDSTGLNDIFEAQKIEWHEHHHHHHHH
Assay: SPR, Fab-SASA captured on BSA;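 further: biacore T200 SPR, Fab-SASA variants from E. coli conditioned medium captured on BSA-coated CM5 chip, canine IL-4RA injected 120 s then 420 s dissociation, 1:1 model fit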
pKd: recorded values
Scale: negative log10 of molar concentration, which is what pKd denotes.

TB640_005 Fab-SASA VL-I33A (Fab, V domains shown, not shown: SASA tag then His-tag) VH: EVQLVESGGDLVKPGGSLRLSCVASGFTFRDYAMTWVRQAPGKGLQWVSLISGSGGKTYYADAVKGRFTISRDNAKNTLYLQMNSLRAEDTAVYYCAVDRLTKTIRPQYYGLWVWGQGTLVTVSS VL: DIVMTQTPLSLSVSPGETASISCRSSQSLLYSAGYNYLDWYLQKPGQSPQGLIYLGSKRASGVPDRFSGSGSGTDFTLRISRVEANDTGVYYCMQGLQSPLTFGQGTKLEIKR ... 7.70
TB640_005 Fab-SASA VL-T102L (Fab, V domains shown, not shown: SASA tag then His-tag) VH: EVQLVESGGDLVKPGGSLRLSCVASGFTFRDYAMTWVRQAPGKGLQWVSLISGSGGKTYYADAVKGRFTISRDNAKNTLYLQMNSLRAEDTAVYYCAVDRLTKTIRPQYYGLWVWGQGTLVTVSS VL: DIVMTQTPLSLSVSPGETASISCRSSQSLLYSIGYNYLDWYLQKPGQSPQGLIYLGSKRASGVPDRFSGSGSGTDFTLRISRVEANDTGVYYCMQGLQSPLLFGQGTKLEIKR ... 8.19

Query :: Fill in the blank: the reported pKd of TB640_005 Fab-SASA VL-L30T (Fab, V domains shown, not shown: SASA tag then His-tag) VH: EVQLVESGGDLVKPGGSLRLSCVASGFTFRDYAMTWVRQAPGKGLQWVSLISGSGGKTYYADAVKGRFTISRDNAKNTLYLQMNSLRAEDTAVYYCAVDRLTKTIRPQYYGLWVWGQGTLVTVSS VL: DIVMTQTPLSLSVSPGETASISCRSSQSLTYSIGYNYLDWYLQKPGQSPQGLIYLGSKRASGVPDRFSGSGSGTDFTLRISRVEANDTGVYYCMQGLQSPLTFGQGTKLEIKR is ____.
Result :: 7.93
